Answer each item with its documented melting point.

Looking up `CP(C)(=O)OCc1ccccc1` , I see its melting point listed as 41 to 45 °C

Looking up `Cc1ccc2c(c1)c(Sc1ccc(Cl)cc1)c(C)n2CC(=O)O` , I see its melting point listed as 219 to 221 °C

Looking up CN(C(=O)Nc1ccc(Cl)c(Cl)c1)S(=O)C(C)(C)C (stereo unspecified) , I see its melting point listed as 118 °C

Looking up CC(Oc1cc(O)ccc1[N+](=O)[O-])C(=O)O (stereo unspecified) , I see its melting point listed as 190 to 195 °C

Looking up `O=C(O)/C=C/c1cc(OCC2CC2)nn1Cc1ccc(C(F)(F)F)cc1Cl` , I see its melting point listed as 195 to 196 °C

Looking up `COC(=O)c1cc(OC)c(N(C)C)c(OC)c1` , I see its melting point listed as 71 to 72 °C

Looking up `CC(C)(Oc1ccccc1)C(=O)N[C@H]1CC[C@H](c2ccc(O)cc2)CC1` , I see its melting point listed as 114 to 117 °C

Looking up Oc1ccc(C2=C(c3ccc(OC4CCCCO4)cc3)CCCc3cc(OC4CCCCO4)ccc32)cc1 (stereo unspecified) , I see its melting point listed as 182 to 183 °C

Looking up `BrCc1cccc2c(-c3ccccc3)c(Br)oc12` , I see its melting point listed as 135 to 138 °C

Looking up `N#CC(=Cc1cc(O)c(O)c([N+](=O)[O-])c1)C(=O)NCCCO` , I see its melting point listed as 223 to 228 °C

Looking up `CCOC(=O)c1c(C(F)(F)F)nc(C(F)F)c(C(=O)OC)c1C1CC1` , I see its melting point listed as 49 to 52 °C
